Provenance of the data: patent US8425968B2

assay_text: physchem
Format: physicochemical
condition: 4 °C, pH 3.4, aqueous buffer, thermodynamic from solid

| molecule | solubility |
| --- | --- |
| CC1O[C@@H](O[C@H]2/C=C/C=C/C=C/C=C/C[C@@H](C)OC(=O)/C=C/[C@H]3O[C@@H]3C[C@H](O)C[C@]3(O)C[C@H](O)[C@@H](C(=O)O)[C@H](C2)O3)C(O)C(N)[C@@H]1O (stereo partly shown) [Pimaricin] | 0.01 mg/mL |

====

assay_text: physchem
Type: physicochemical
condition: 25 °C, pH 3.4, aqueous buffer, thermodynamic from solid
measure: solubility at 24 h (µg/mL)

| compound | measure | number |
| --- | --- | --- |
| CC1O[C@@H](O[C@H]2/C=C/C=C/C=C/C=C/C[C@@H](C)OC(=O)/C=C/[C@H]3O[C@@H]3C[C@H](O)C[C@]3(O)C[C@H](O)[C@@H](C(=O)O)[C@H](C2)O3)C(O)C(N)[C@@H]1O (stereo partly shown) | solubility at 24 h | 20 |
